Tested on: LU99A
ASSAY_EXPLANATION: relative viability (nuclei count vs DMSO), 5 days (fraction); higher = more cells survive
REPORTED_CONDITIONS: first compound 0.1265 µM
Please provide measured relative viability for the entries that follow.
Format: numeric value only, no unit, no commentary.

Hello, I am looking for reported relative viability with LU99A for Clc1ccc(Nc2nnc(Cc3ccncc3)c3ccccc23)cc1 [Vatalanib] + CS(=O)(=O)CCNCc1ccc(-c2ccc3ncnc(Nc4ccc(OCc5cccc(F)c5)c(Cl)c4)c3c2)o1 [Lapatinib] (partner 2 µM) . Could you help?
0.986

Hello, I am looking for reported relative viability with LU99A for C[C@@H]1CN(CC(=O)Nc2ccc3c(c2)Cc2cccc(-c4cc(=O)cc(N5CCOCC5)o4)c2S3)C[C@H](C)O1 + CC(=O)c1c(C)c2cnc(Nc3ccc(N4CCNCC4)cn3)nc2n(C2CCCC2)c1=O [Palbociclib] (partner 0.5 µM) . Could you help?
0.404

Hello, I am looking for reported relative viability with LU99A for Clc1ccc(Nc2nnc(Cc3ccncc3)c3ccccc23)cc1 [Vatalanib] + COc1cc2c(Oc3ccc(NC(=O)C4(C(=O)Nc5ccc(F)cc5)CC4)cc3F)ccnc2cc1OCCCN1CCOCC1 [Foretinib] (partner 0.25 µM) . Could you help?
0.842

Hello, I am looking for reported relative viability with LU99A for COc1cc(N2CCC(C(N)=O)CC2)ccc1Nc1nc(N)c(Cl)c(Nc2ccccc2S(=O)(=O)C(C)C)n1 [HG-5-88-01] + COc1cccc2cc(-c3nc([C@H]4CC[C@H](C(=O)O)CC4)n4ncnc(N)c34)[nH]c12 [OSI-027] (partner 0.5 µM) . Could you help?
0.316

Hello, I am looking for reported relative viability with LU99A for COc1cc(N2CCC(C(N)=O)CC2)ccc1Nc1nc(N)c(Cl)c(Nc2ccccc2S(=O)(=O)C(C)C)n1 [HG-5-88-01] + Cc1cc(Nc2cc(N3CCN(C)CC3)nc(Sc3ccc(NC(=O)C4CC4)cc3)n2)n[nH]1 [Tozasertib] (partner 0.1 µM) . Could you help?
0.301

Hello, I am looking for reported relative viability with LU99A for Clc1ccc(Nc2nnc(Cc3ccncc3)c3ccccc23)cc1 [Vatalanib] + Cc1nc(Nc2ncc(C(=O)Nc3c(C)cccc3Cl)s2)cc(N2CCN(CCO)CC2)n1 [Dasatinib] (partner 0.075 µM) . Could you help?
0.58

Hello, I am looking for reported relative viability with LU99A for COc1cc(N2CCC(C(N)=O)CC2)ccc1Nc1nc(N)c(Cl)c(Nc2ccccc2S(=O)(=O)C(C)C)n1 [HG-5-88-01] + CC(C)C[C@H](NC(=O)[C@H](Cc1ccccc1)NC(=O)c1cnccn1)B(O)O [Bortezomib] (partner 0.002 µM) . Could you help?
1.15

Hello, I am looking for reported relative viability with LU99A for COc1cc(N2CCC(C(N)=O)CC2)ccc1Nc1nc(N)c(Cl)c(Nc2ccccc2S(=O)(=O)C(C)C)n1 [HG-5-88-01] + N=C(N)NC(=N)NCCc1ccccc1 [Phenformin] (partner 250 µM) . Could you help?
0.78

###

Tested on: NCI-H1650
ASSAY_EXPLANATION: relative viability (nuclei count vs DMSO), 5 days (fraction); higher = more cells survive
REPORTED_CONDITIONS: first compound 8 µM
Please provide measured relative viability for the entries that follow.
Format: numeric value only, no unit, no commentary.

Which relative viability value is on record for CCCCCCCCCCCC1=C(O)C(=O)C=C(O)C1=O [Embelin] + CS(=O)(=O)CCNCc1ccc(-c2ccc3ncnc(Nc4ccc(OCc5cccc(F)c5)c(Cl)c4)c3c2)o1 [Lapatinib] (partner 2 µM) ?
0.712

Which relative viability value is on record for CCCCCCCCCCCC1=C(O)C(=O)C=C(O)C1=O [Embelin] + Nc1nc2[nH]cc(CCc3ccc(C(=O)N[C@@H](CCC(=O)O)C(=O)O)cc3)c2c(=O)[nH]1 [Pemetrexed] (partner 0.2 µM) ?
0.358

Which relative viability value is on record for CCCCCCCCCCCC1=C(O)C(=O)C=C(O)C1=O [Embelin] + CC(=O)Nc1cccc(-n2c(=O)n(C3CC3)c(=O)c3c(Nc4ccc(I)cc4F)n(C)c(=O)c(C)c32)c1 [Trametinib] (partner 0.02 µM) ?
0.703

###

Tested on: NCI-H2347
ASSAY_EXPLANATION: relative viability (nuclei count vs DMSO), 5 days (fraction); higher = more cells survive
REPORTED_CONDITIONS: first compound 0.4 µM
MEASUREMENT_TYPE: relative viability

Hello, I am looking for reported relative viability with NCI-H2347 for COc1cc(N2CCC(C(N)=O)CC2)ccc1Nc1nc(N)c(Cl)c(Nc2ccccc2S(=O)(=O)C(C)C)n1 [HG-5-88-01] + COc1cccc2cc(-c3nc([C@H]4CC[C@H](C(=O)O)CC4)n4ncnc(N)c34)[nH]c12 [OSI-027] (partner 0.5 µM) . Could you help?
0.388

Hello, I am looking for reported relative viability with NCI-H2347 for Clc1ccc(Nc2nnc(Cc3ccncc3)c3ccccc23)cc1 [Vatalanib] + CC1(C)CCC(c2ccc(Cl)cc2)=C(CN2CCN(c3ccc(C(=O)NS(=O)(=O)c4ccc(N[C@H](CCN5CCOCC5)CSc5ccccc5)c(S(=O)(=O)C(F)(F)F)c4)cc3)CC2)C1 [Navitoclax] (partner 0.5 µM) . Could you help?
0.885

Hello, I am looking for reported relative viability with NCI-H2347 for C[C@@H]1CN(CC(=O)Nc2ccc3c(c2)Cc2cccc(-c4cc(=O)cc(N5CCOCC5)o4)c2S3)C[C@H](C)O1 + C[C@@H](Oc1cc(-c2cnn(C3CCNCC3)c2)cnc1N)c1c(Cl)ccc(F)c1Cl [Crizotinib] (partner 1 µM) . Could you help?
0.735

Hello, I am looking for reported relative viability with NCI-H2347 for C[C@@H]1CN(CC(=O)Nc2ccc3c(c2)Cc2cccc(-c4cc(=O)cc(N5CCOCC5)o4)c2S3)C[C@H](C)O1 + COc1cc2c(Oc3ccc(NC(=O)C4(C(=O)Nc5ccc(F)cc5)CC4)cc3F)ccnc2cc1OCCCN1CCOCC1 [Foretinib] (partner 0.25 µM) . Could you help?
1.04

Hello, I am looking for reported relative viability with NCI-H2347 for C[C@@H]1CN(CC(=O)Nc2ccc3c(c2)Cc2cccc(-c4cc(=O)cc(N5CCOCC5)o4)c2S3)C[C@H](C)O1 + CS(=O)(=O)N1CCN(Cc2cc3nc(-c4cccc5[nH]ncc45)nc(N4CCOCC4)c3s2)CC1 [Pictilisib] (partner 1 µM) . Could you help?
0.747

Hello, I am looking for reported relative viability with NCI-H2347 for COc1cc(N2CCC(C(N)=O)CC2)ccc1Nc1nc(N)c(Cl)c(Nc2ccccc2S(=O)(=O)C(C)C)n1 [HG-5-88-01] + NC(=O)Nc1cc(-c2cccc(F)c2)sc1C(=O)N[C@H]1CCCNC1 [AZD7762] (partner 0.2 µM) . Could you help?
0.82

Hello, I am looking for reported relative viability with NCI-H2347 for Clc1ccc(Nc2nnc(Cc3ccncc3)c3ccccc23)cc1 [Vatalanib] + O=C(CCCCCCC(=O)Nc1ccccc1)NO [Vorinostat] (partner 1 µM) . Could you help?
0.516

Hello, I am looking for reported relative viability with NCI-H2347 for COc1cc(N2CCC(C(N)=O)CC2)ccc1Nc1nc(N)c(Cl)c(Nc2ccccc2S(=O)(=O)C(C)C)n1 [HG-5-88-01] + CS(=O)(=O)CCNCc1ccc(-c2ccc3ncnc(Nc4ccc(OCc5cccc(F)c5)c(Cl)c4)c3c2)o1 [Lapatinib] (partner 2 µM) . Could you help?
0.896

Hello, I am looking for reported relative viability with NCI-H2347 for C[C@@H]1CN(CC(=O)Nc2ccc3c(c2)Cc2cccc(-c4cc(=O)cc(N5CCOCC5)o4)c2S3)C[C@H](C)O1 + NC(=O)Nc1cc(-c2cccc(F)c2)sc1C(=O)N[C@H]1CCCNC1 [AZD7762] (partner 0.2 µM) . Could you help?
0.625

Hello, I am looking for reported relative viability with NCI-H2347 for C[C@@H]1CN(CC(=O)Nc2ccc3c(c2)Cc2cccc(-c4cc(=O)cc(N5CCOCC5)o4)c2S3)C[C@H](C)O1 + CS(=O)(=O)CCNCc1ccc(-c2ccc3ncnc(Nc4ccc(OCc5cccc(F)c5)c(Cl)c4)c3c2)o1 [Lapatinib] (partner 2 µM) . Could you help?
0.988

###

Tested on: NCI-H23
ASSAY_EXPLANATION: relative viability (nuclei count vs DMSO), 5 days (fraction); higher = more cells survive
REPORTED_CONDITIONS: first compound 0.04 µM
Please provide measured relative viability for the entries that follow.
Format: numeric value only, no unit, no commentary.

Hello, I am looking for reported relative viability with NCI-H23 for COc1cc(N2CCC(C(N)=O)CC2)ccc1Nc1nc(N)c(Cl)c(Nc2ccccc2S(=O)(=O)C(C)C)n1 [HG-5-88-01] + Cc1cc(Nc2cc(N3CCN(C)CC3)nc(Sc3ccc(NC(=O)C4CC4)cc3)n2)n[nH]1 [Tozasertib] (partner 0.1 µM) . Could you help?
0.337

Hello, I am looking for reported relative viability with NCI-H23 for Clc1ccc(Nc2nnc(Cc3ccncc3)c3ccccc23)cc1 [Vatalanib] + CS(=O)(=O)CCNCc1ccc(-c2ccc3ncnc(Nc4ccc(OCc5cccc(F)c5)c(Cl)c4)c3c2)o1 [Lapatinib] (partner 2 µM) . Could you help?
0.963

Hello, I am looking for reported relative viability with NCI-H23 for Clc1ccc(Nc2nnc(Cc3ccncc3)c3ccccc23)cc1 [Vatalanib] + Cc1nc(Nc2ncc(C(=O)Nc3c(C)cccc3Cl)s2)cc(N2CCN(CCO)CC2)n1 [Dasatinib] (partner 0.075 µM) . Could you help?
0.792

Hello, I am looking for reported relative viability with NCI-H23 for Clc1ccc(Nc2nnc(Cc3ccncc3)c3ccccc23)cc1 [Vatalanib] + CC(=O)c1c(C)c2cnc(Nc3ccc(N4CCNCC4)cn3)nc2n(C2CCCC2)c1=O [Palbociclib] (partner 0.5 µM) . Could you help?
0.469

Hello, I am looking for reported relative viability with NCI-H23 for Clc1ccc(Nc2nnc(Cc3ccncc3)c3ccccc23)cc1 [Vatalanib] + C[C@@H](Oc1cc(-c2cnn(C3CCNCC3)c2)cnc1N)c1c(Cl)ccc(F)c1Cl [Crizotinib] (partner 1 µM) . Could you help?
0.505

Hello, I am looking for reported relative viability with NCI-H23 for C[C@@H]1CN(CC(=O)Nc2ccc3c(c2)Cc2cccc(-c4cc(=O)cc(N5CCOCC5)o4)c2S3)C[C@H](C)O1 + NC(=O)Nc1cc(-c2cccc(F)c2)sc1C(=O)N[C@H]1CCCNC1 [AZD7762] (partner 0.2 µM) . Could you help?
0.238

Hello, I am looking for reported relative viability with NCI-H23 for C[C@@H]1CN(CC(=O)Nc2ccc3c(c2)Cc2cccc(-c4cc(=O)cc(N5CCOCC5)o4)c2S3)C[C@H](C)O1 + Nc1ncn([C@H]2C[C@H](O)[C@@H](CO)O2)c(=O)n1 [Decitabine] (partner 2 µM) . Could you help?
0.347

Hello, I am looking for reported relative viability with NCI-H23 for C[C@@H]1CN(CC(=O)Nc2ccc3c(c2)Cc2cccc(-c4cc(=O)cc(N5CCOCC5)o4)c2S3)C[C@H](C)O1 + C[C@@H](Oc1cc(-c2cnn(C3CCNCC3)c2)cnc1N)c1c(Cl)ccc(F)c1Cl [Crizotinib] (partner 1 µM) . Could you help?
0.521

Hello, I am looking for reported relative viability with NCI-H23 for C[C@@H]1CN(CC(=O)Nc2ccc3c(c2)Cc2cccc(-c4cc(=O)cc(N5CCOCC5)o4)c2S3)C[C@H](C)O1 + C[C@]1(O)C[C@@H](c2nc(-c3ccc4ccc(-c5ccccc5)nc4c3)c3c(N)nccn32)C1 [Linsitinib] (partner 1 µM) . Could you help?
0.609
